- method: Viscosity in aqueous solution at 20° C. (Example 82, Tables 1 and 2)
- Format: physicochemical
- experimental parameters: calculated for 400 mgI/ml
quantity kind: Viscosity at 400 mgI/ml (CALCULATED) (mPas)
Respond numerically; units are mPas and should not be typed.

**Q:** Give its Viscosity at 400 mgI/ml (CALCULATED) value. Item: O=C(Nc1c(I)c(CO)c(I)c(C(=O)N(CCO)CCO)c1I)C(O)CO (stereo not drawn)
**A:** 12.8

**Q:** Give its Viscosity at 400 mgI/ml (CALCULATED) value. Item: O=C(NCC(O)CO)c1c(I)c(CO)c(I)c(NC(=O)C(CO)(CO)CO)c1I (stereo not drawn)
**A:** 22.9

**Q:** Give its Viscosity at 400 mgI/ml (CALCULATED) value. Item: CN(CC(O)CO)C(=O)c1c(I)c(CO)c(I)c(NC(=O)C(O)CO)c1I (stereo not drawn)
**A:** 16.4

**Q:** Give its Viscosity at 400 mgI/ml (CALCULATED) value. Item: O=C(CO)Nc1c(I)c(CO)c(I)c(C(=O)N(CC(O)CO)CC(O)CO)c1I (stereo not drawn)
**A:** 16.2

**Q:** Give its Viscosity at 400 mgI/ml (CALCULATED) value. Item: O=C(CO)Nc1c(I)c(CO)c(I)c(N(CCO)C(=O)CO)c1I
**A:** 10.0

**Q:** Give its Viscosity at 400 mgI/ml (CALCULATED) value. Item: CC(O)C(=O)Nc1c(I)c(CO)c(I)c(N(CC(O)CO)C(=O)C(C)O)c1I (stereo not drawn)
**A:** 15

**Q:** Give its Viscosity at 400 mgI/ml (CALCULATED) value. Item: O=C(CO)Nc1c(I)c(CC(O)CO)c(I)c(NC(=O)CO)c1I (stereo not drawn)
**A:** 8.8

**Q:** Give its Viscosity at 400 mgI/ml (CALCULATED) value. Item: O=C(c1c(I)c(CO)c(I)c(N(CCO)C(=O)CO)c1I)N(CCO)CCO
**A:** 12.0

**Q:** Give its Viscosity at 400 mgI/ml (CALCULATED) value. Item: O=C(NCC(O)CO)c1c(I)c(CO)c(I)c(N(CCO)C(=O)C(O)CO)c1I (stereo not drawn)
**A:** 23.3

====

- method: Viscosity in aqueous solution at 20° C. (Example 82, Tables 1 and 2)
- Type: physicochemical
- experimental parameters: calculated for 350 mgI/ml
quantity kind: Viscosity 350 mgI/ml (CALCULATED) (mPas)
Respond numerically; units are mPas and should not be typed.

{"columns": ["compound", "unit label", "Viscosity 350 mgI/ml (CALCULATED)"],
 "data": [
  ["CC(O)C(=O)N(CCO)c1c(I)c(CO)c(I)c(C(=O)NC(CO)C(O)CO)c1I (stereo not drawn)", "mPas", 10.4],
  ["O=C(NC(CO)C(O)CO)c1c(I)c(CO)c(I)c(N(CCO)C(=O)CO)c1I (stereo not drawn)", "mPas", 9.6]
]}

Consider now this further compound.
**Q:** Give its Viscosity 350 mgI/ml (CALCULATED) value. Item: O=C(CO)N(CCO)c1c(I)c(CC(O)CO)c(I)c(N(CCO)C(=O)CO)c1I (stereo not drawn)
**A:** 6.7
